For each of the sequences below, state its PBM E-score.
Molecular target: Sko1 (UniProt Q02100)
Sequence: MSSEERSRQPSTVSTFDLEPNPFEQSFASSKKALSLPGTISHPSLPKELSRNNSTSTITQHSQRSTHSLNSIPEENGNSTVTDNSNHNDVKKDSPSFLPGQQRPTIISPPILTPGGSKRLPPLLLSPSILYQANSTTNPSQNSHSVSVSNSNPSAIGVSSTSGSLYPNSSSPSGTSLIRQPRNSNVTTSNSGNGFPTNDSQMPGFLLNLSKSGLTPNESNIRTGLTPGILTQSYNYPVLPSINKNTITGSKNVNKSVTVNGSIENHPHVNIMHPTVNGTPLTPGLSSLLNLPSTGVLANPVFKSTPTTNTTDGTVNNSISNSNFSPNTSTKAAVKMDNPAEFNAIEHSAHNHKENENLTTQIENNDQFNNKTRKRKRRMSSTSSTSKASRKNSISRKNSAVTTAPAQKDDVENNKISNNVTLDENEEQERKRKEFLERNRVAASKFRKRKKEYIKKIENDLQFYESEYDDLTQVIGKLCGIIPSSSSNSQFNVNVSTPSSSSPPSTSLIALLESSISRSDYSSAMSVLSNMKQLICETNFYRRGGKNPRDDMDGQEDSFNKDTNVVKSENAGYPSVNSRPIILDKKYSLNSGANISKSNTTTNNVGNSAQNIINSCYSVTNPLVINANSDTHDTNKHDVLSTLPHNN
Assay: PBM E-score (8-mer binding enrichment) (E-score (-0.5 to 0.5)); higher = stronger / more preferred TF binding
Details: protein concentration: 200 nM; construct: GST-full length
Over roughly 33,000 sequences, “E-score (-0.5 to 0.5)” has its median near -0.032; the highest 2% begin near 0.36. Shown is part of a subset that was picked to be rich in the highest values.
Give your answer as a number; write no unit.

// field: PBM E-score; key: AGACGTTC ; value = 0.125

Value of PBM E-score reported for the sequence CATCATAC is 0.377

Field PBM E-score (entry GAAACGAA ) reads 0.115

PBM E-score recorded for this sequence, GTACGTTA , is 0.395

PBM E-score reading for ACGACGAA : 0.25

CATCATAG yielded PBM E-score of 0.361

Looking up CCCAATAC , I see its PBM E-score listed as 0.0194

The recorded PBM E-score for AATCATAC is 0.253

# sequence AAGGTGCT ; its PBM E-score = -0.238

Sure, the documented PBM E-score for CAAACGTC is 0.329

# sequence GAAACGCC ; its PBM E-score = 0.145

PBM E-score measured on CCAGAGAA = 0.0433

Value of PBM E-score reported for the sequence GCACGTTA is 0.274

###

Molecular target: Sko1 (UniProt Q02100)
Sequence: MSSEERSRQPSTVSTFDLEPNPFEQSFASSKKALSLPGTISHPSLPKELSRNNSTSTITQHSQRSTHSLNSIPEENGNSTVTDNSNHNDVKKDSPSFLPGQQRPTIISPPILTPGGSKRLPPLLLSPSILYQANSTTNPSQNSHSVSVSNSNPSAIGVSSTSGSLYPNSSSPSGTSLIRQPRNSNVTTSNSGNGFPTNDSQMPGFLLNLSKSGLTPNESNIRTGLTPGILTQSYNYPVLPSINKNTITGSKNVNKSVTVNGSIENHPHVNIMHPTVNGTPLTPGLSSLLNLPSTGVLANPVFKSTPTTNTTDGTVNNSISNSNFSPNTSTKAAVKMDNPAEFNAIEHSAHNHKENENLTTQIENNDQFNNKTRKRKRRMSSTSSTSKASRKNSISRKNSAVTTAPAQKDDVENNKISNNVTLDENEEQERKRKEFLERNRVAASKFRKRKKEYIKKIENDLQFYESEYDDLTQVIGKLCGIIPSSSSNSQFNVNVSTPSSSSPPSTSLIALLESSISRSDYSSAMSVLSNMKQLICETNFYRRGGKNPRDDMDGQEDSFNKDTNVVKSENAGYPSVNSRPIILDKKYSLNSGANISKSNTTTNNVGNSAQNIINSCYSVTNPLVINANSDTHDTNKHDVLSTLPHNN
Experiment: PBM E-score (8-mer binding enrichment) (E-score (-0.5 to 0.5)); higher = stronger / more preferred TF binding
Conditions: protein concentration: 200 nM; construct: GST-full length
Whole data set: some 33,000 sequences, median “E-score (-0.5 to 0.5)” near -0.032, cut for the highest 2% near 0.36. The entries come from a sample that favours the highest values as a whole.
Provide the recorded PBM E-score for the entries that follow.
Quick one: just the number, no unit, thanks!

Input CCCTAGAG . Output PBM E-score: -0.32

PBM E-score in this record for AGCTCTTA : 0.0315

response.value for ACATATGT (field: PBM E-score) = 0.29

Entry AGCGCGAT , PBM E-score reported as -0.0488

# PBM E-score (sequence: CGCGTGAC ) is 0.267

Summary for this sequence, CATGACCG : PBM E-score is 0.0181

Item: CGTGGGAA | PBM E-score: 0.00507

Reported PBM E-score of CGTATTTC : 0.367

For reference, reported PBM E-score for GAACGACC stands at -0.306

Lab note: ACGTCTCC gave PBM E-score of 0.322

PBM E-score reported for this sequence CAGTCATA : 0.0103

# PBM E-score (sequence: CGTATTTA ) is 0.419

PBM E-score in this record for CGGTCATC : -0.0713

PBM E-score measured on CCTATTTC = 0.0978

So for GGCATTGA , the logged PBM E-score turned out to be -0.104

get_value(item= ATCCACCG , readout=PBM E-score) returns -0.0573

The recorded PBM E-score for entry GGTATTTA equals 0.0513

Recorded PBM E-score (sequence GCGTATAA ): 0.271

Measured PBM E-score of GAGTATAC : 0.192

Memo: ACGTCTCG , reported PBM E-score: 0.24

Summary for this sequence, GGCGTAGA : PBM E-score is 0.118

Record CACGTGAC , field PBM E-score: 0.387

// PBM E-score value for ACGTCTAC : 0.368

Data point: GACGTGAC ; PBM E-score = 0.432

Reported PBM E-score of CTTCGCGC : 0.217

Value of measured PBM E-score for the entry CCGTCTTA : 0.00816

So, TGAATGAA ? Its PBM E-score was 0.197

Entry GCGTCATA ; PBM E-score = 0.481

For reference, reported PBM E-score for CACGTGAG stands at 0.344

The reported value for TACGTAGA in terms of PBM E-score is 0.452
